These entries and their values trace back to the supplement of paper PMC8728848.

- system.under.test: GlcNAc(b1-4)GlcNAc(b1-4)GlcNAc(b1-4)GlcNAc(b1-4)GlcNAc
- test.summary: glycan array binding signal (z-score within array); higher = stronger binding
- run.conditions: glycan notation: IUPAC condensed, linker removed
This is one part of a sample in which the strongest signals are shown more often than they occur.
result.type: glycan array binding signal (z-score)
Output: the number by itself.

For the binder chitinase 3-like protein 2 (Homo sapiens) (protein) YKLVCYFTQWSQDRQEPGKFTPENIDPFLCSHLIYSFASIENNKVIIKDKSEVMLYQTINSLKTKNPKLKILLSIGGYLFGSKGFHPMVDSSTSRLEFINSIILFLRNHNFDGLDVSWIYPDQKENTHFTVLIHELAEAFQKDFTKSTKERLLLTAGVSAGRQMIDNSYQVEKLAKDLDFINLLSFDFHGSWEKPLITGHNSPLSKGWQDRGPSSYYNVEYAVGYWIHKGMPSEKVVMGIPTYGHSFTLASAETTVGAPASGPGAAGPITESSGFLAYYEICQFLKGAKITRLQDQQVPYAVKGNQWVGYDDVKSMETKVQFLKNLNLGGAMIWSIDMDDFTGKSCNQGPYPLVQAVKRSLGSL , give its measured glycan array binding signal (z-score) value.
7.67
